Source of measurements: PubChem BioAssay AID1963438

Entries and their viability, T/C values follow.
system: NCI-H510 multicellular tumor spheroid growth, % test/control; test: Anticancer human tumor NCI-H510 cell line growth inhibition [Asc]; details: second compound 0.1 µM; first compound 0.01 µM; hits give low values;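 further: spheroids exposed to agents for 7 days; 100% = DMSO vehicle control wells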
Output spec: scalar in %, unitless text.

COc1c(OCCCN2CCOCC2)ccc2c3n(c(=NC(=O)c4cnc(N)nc4)nc12)CCN3 + CNC(C)C(=O)NC1CN(S(=O)(=O)c2cccc(S(=O)(=O)N3CCC4CCC(C(=O)NC(c5ccccc5)c5ccccc5)N4C(=O)C(NC(=O)C(C)NC)C3)c2)CCC2CCC(C(=O)NC(c3ccccc3)c3ccccc3)N2C1=O
109
COc1c(OCCCN2CCOCC2)ccc2c3n(c(=NC(=O)c4cnc(N)nc4)nc12)CCN3 + Cc1c(S(C)(=O)=O)c(-c2cc(F)cc(N3CCN(c4ccc(NS(=O)(=O)c5ccc(NC(CCN6CCC(C(=O)OCCCP(=O)(O)O)CC6)CSc6ccccc6)c(S(=O)(=O)C(F)(F)F)c5)cc4)CC3)c2)c(-c2ccc(Cl)cc2)n1C(C)C
106

Let's switch to this compound now.
**Q:** Value lookup for viability, T/C; key = Cn1ncnc1[C@H]1c2n[nH]c(=O)c3cc(F)cc(c23)N[C@@H]1c1ccc(F)cc1 + CNC(C)C(=O)NC1CN(S(=O)(=O)c2cccc(S(=O)(=O)N3CCC4CCC(C(=O)NC(c5ccccc5)c5ccccc5)N4C(=O)C(NC(=O)C(C)NC)C3)c2)CCC2CCC(C(=O)NC(c3ccccc3)c3ccccc3)N2C1=O
**A:** 98.2
